method-notes: viability loss with induced miR-34 in A549 – imaging, A549 dox-inducible miR-34, nuclei and caspase counts, primary screen (AID 1347080); also: test concentration not given here
test-conditions: A549 miR-34 inducible, Hoechst nuclei count, 48 h; measured here: total cells with miR-34 induction; stronger effect = lower value
Response field label takes yes when cell count is strictly below 5000 and no in all other cases.

Dear reviewer, please state whether COc1cc2c(cc1OC)-c1cc3nc4ccccc4nc3n1C(C)(C)C2 has cell count strictly beneath 5000.
yes

Now, please, on to the next molecule.
Dear reviewer, please state whether C1CCC(N=C(NC23CC4CC(CC(C4)C2)C3)N2CCOCC2)CC1 has cell count strictly beneath 5000.
no
